- TEST SYSTEM: Phosphatidylinositol 4,5-bisphosphate 3-kinase catalytic subunit delta isoform (Homo sapiens, UniProt O00329)
- Sequence (O00329 whole entry, canonical isoform): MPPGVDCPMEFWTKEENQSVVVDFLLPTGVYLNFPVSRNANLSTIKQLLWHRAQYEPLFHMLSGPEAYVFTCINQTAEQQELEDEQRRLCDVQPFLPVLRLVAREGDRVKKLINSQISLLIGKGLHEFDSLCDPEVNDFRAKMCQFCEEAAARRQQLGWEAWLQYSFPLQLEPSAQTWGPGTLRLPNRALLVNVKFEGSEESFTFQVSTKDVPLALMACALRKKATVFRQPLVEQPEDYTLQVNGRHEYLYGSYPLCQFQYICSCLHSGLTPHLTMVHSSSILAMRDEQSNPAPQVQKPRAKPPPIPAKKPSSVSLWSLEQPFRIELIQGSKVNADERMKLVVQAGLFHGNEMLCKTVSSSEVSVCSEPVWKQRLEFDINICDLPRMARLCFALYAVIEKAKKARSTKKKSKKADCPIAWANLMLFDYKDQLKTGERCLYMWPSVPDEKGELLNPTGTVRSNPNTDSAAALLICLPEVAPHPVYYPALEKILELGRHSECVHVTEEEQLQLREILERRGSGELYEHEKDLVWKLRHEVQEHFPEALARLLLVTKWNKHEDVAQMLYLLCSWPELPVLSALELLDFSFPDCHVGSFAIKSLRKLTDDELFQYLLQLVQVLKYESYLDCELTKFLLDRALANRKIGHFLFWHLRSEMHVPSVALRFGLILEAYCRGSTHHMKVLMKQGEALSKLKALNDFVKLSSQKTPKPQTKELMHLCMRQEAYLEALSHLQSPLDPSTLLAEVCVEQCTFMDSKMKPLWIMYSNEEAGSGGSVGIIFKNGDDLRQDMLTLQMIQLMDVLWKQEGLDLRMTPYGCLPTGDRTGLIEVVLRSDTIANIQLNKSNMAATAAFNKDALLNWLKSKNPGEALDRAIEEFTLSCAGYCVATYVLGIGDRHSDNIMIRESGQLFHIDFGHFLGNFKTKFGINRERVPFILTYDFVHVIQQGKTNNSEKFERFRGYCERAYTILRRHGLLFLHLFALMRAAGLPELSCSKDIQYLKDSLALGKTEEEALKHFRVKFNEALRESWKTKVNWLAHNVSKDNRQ
- ASSAY NOTES: Scintillation Proximity Assay
- Experimental: PI3Kδ: [γ-33P]ATP (10 mCi/mL) and Wheat Germ Agglutinin (WGA) YSi SPA Scintillation Beads was purchased from PerkinElmer (Waltham, Mass.). […] After the plate sealing, plates were shaken overnight at room temperature and centrifuged at 1500 rpm for 10 min, the radioactivity of the product was determined by scintillation counting on Topcount.
pIC50: −log10 of the molar value.
EXPERIMENTAL READOUT: pIC50

## Input Request the reported pIC50 associated with Cc1ccc(C(C)C(F)(F)F)cc1-c1cnc2c(N)nc(-c3cnco3)cn12 (stereo not drawn)
## Output > 7.00

## Input Moving on to Cc1ncc(-c2cn3c(-c4cc(C(C)C(F)(F)F)ccc4C)cnc3c(N)n2)s1 (stereo not drawn)
## Output > 7.00

## Input Moving on to Cc1ccc(C(C)C(F)(F)F)cc1-c1cnc2c(N)nc(-c3cnn(C)c3)cn12 (stereo not drawn)
## Output > 7.00
